Assignment: determine reported inhibition at 3 µM for the given compounds.
system: KBV1; assay: cells; assay type: cell-based; settings: Homo sapiens, KB-V1, 3000 nM
# value in %; strip the unit string

Q: Quick one: inhibition at 3 µM for CN[C@H](C(=O)N[C@H](C(=O)N(C)[C@H](/C=C/P(=O)(O)OC)C(C)C)C(C)(C)C)C(C)(C)c1ccccc1 [Example 69] ?
A: 3

Q: Next up: CN[C@H](C(=O)N[C@H](C(=O)N(C)[C@H](/C=C/P(=O)(OC)OC)C(C)C)C(C)(C)C)C(C)(C)c1ccccc1 [Example 68]
A: 8

Q: Next: CN[C@@H](C(=O)N[C@H](C(=O)N(C)[C@H](/C=C(\C)C(=O)O)C(C)C)C(C)(C)C)C12CC3CC(CC(C3)C1)C2 [Example 56]
A: 11

Q: CN[C@H](C(=O)N[C@H](C(=O)N(C)[C@H](/C=C(\C)C(=O)N1CC=C[C@H]1C(=O)O)C(C)C)C(C)(C)C)C(C)(C)c1ccccc1 [Example 48] , same question.
A: 15

Q: One more compound: CN[C@H](C(=O)N[C@H](C(=O)N(C)[C@H](/C=C(\C)C(=O)N1C[C@H](O)C[C@H]1C(=O)OC)C(C)C)C(C)(C)C)C(C)(C)c1ccccc1 [Example 40]
A: 4

Q: Another: CN[C@H](C(=O)N[C@H](C(=O)N(C)[C@H](/C=C(\C)C(=O)N1CCC[C@H]1C(=O)O)C(C)C)C(C)(C)C)C(C)(C)c1ccccc1 [Example 36]
A: 0

Q: Again, but for CN[C@H](C(=O)N[C@H](C(=O)N(C)[C@H](/C=C(\C)P(=O)(O)O)C(C)C)C(C)(C)C)C(C)(C)c1ccccc1 [Example 72]
A: 4

Q: // same read-out, input: CN[C@H](C(=O)N[C@H](C(=O)N(C)[C@H](/C=C(\C)C(=O)N1CCC[C@H]1C(=O)O)C(C)C)C(C)(C)C)C(C)(C)c1cccc(Cl)c1 [Example 24]
A: 17

Q: Same read-out for CN[C@H](C(=O)N[C@H](C(=O)N(C)[C@H](/C=C(\C)C(=O)N1CCN(C)CC1)C(C)C)C(C)(C)C)C(C)(C)c1cccc(C)c1.O=C(O)C(F)(F)F [Example 6, trifluoroacetic acid salt] ?
A: 33

Q: Next record, please: CN[C@H](C(=O)N[C@H](C(=O)N(C)[C@H](/C=C(\C)C(=O)N1CCCC[C@H]1C(=O)O)C(C)C)C(C)(C)C)C(C)(C)c1ccccc1 [Example 50]
A: 9

Q: Same for CN[C@H](C(=O)N[C@H](C(=O)N(C)[C@H](/C=C(\C)C(=O)N1C[C@H](O)C[C@H]1C(=O)O)C(C)C)C(C)(C)C)C(C)(C)c1ccccc1 [Example 42]
A: 0

----------
test system: KB85; assay: cells; type: cell-based; details: 72 h, 3 days, SRB
*1 amine or outer side, *2 acyl side, *3 side chain or, on linkers, in order; H or OH if unused. Where a SMILES comes first, the peptide text is derived from it. [ ]: non-standard residue; d: D form. The star is where a group is joined. NMePhe(3-Me,β,β-Me2) = CN[C@H](C(=O)O)C(C)(C)c1cccc(C)c1; X1 = C/C(=C\[C@H](C(C)C)N(C)[*:1])C(=O)[*:2]; Tle = CC(C)(C)[C@H](N)C(=O)O; NHBn = c1ccc(CN*)cc1
MEASUREMENT_NAME: IC50 (µM)
# output: bare number, implied unit µM

Q: # input compound: CN[C@H](C(=O)N[C@H](C(=O)N(C)[C@H](/C=C(\C)C(=O)N1CCC[C@@H]1C(=O)N1CCC[C@@H]1C(=O)NCc1ccccc1)C(C)C)C(C)(C)C)C(C)(C)c1cccc(C)c1.O=C(O)C(F)(F)F [Example 9, trifluoroacetic acid salt] (H-[NMePhe(3-Me,β,β-Me2)][Tle][X1][dP][dP]-NHBn) ; wanted: its IC50
A: 0.023

Q: Similarly, CN[C@H](C(=O)N[C@H](C(=O)N(C)[C@H](/C=C(\C)C(=O)N1CCN(CCCN(C)C)CC1)C(C)C)C(C)(C)C)C(C)(C)c1ccccc1 [Example 38] ?
A: 0.529

Q: For CCOC(=O)/C(C)=C/[C@H](C(C)C)N(C)C(=O)[C@@H](NC(=O)C(Cc1ccccc1)C(C)(C)c1ccccc1)C(C)(C)C (stereo partly drawn) [Example 95] then?
A: 0.756

----------
test system: LOX; experiment: Cell survival assay (SRB), LOX; format: cell-based, human; settings: Homo sapiens; LOX cells
MEASUREMENT_NAME: IC50 (nM)
Response body: numeric value in nM, unit text excluded.

Q: Tell me the measured IC50 of "CO[C@H](C(=O)N[C@H](C(=O)N(C)[C@H](/C=C(\C)C(=O)O)C(C)C)C(C)(C)C)C(C)(C)c1ccccc1" , please.
A: 1740

Q: How about this molecule: "C/C(=C\[C@H](C(C)C)N(C)C(=O)[C@@H](NC(=O)[C@@H](C)C(C)(C)c1ccccc1)C(C)(C)C)C(=O)O"
A: 1070

Q: Proceed to "CN[C@H](C(=O)N[C@H](C(=O)N(C)[C@H](/C=C(\C)C(C)=O)C(C)C)C(C)(C)C)C(C)(C)c1ccccc1"
A: 550

----------
test system: KBV1; test: cells; format: cell-based; conditions: Homo sapiens, KB-V1, 3000 nM
Short version: inhibition at 3 µM at least 20% is Yes, less is No.

Q: Textbook exercise: given the entry "CO[C@@H](C(=O)N[C@H](C(=O)N(C)[C@H](/C=C(\C)C(=O)O)C(C)C)C(C)(C)C)C(C)(C)c1ccccc1" , state whether its inhibition at 3 µM is greater than or equal to 20%.
A: Yes

Q: Queued: "CN[C@H](C(=O)N[C@H](C(=O)N(C)[C@H](/C=C(\C)C(=O)N1CCC[C@H]1C(=O)O)C(C)C)C(C)(C)C)C(C)(C)c1cc(C)cc(C)c1"
A: No

Q: # repeat for "CN[C@@H](C(=O)N[C@H](C(=O)N(C)[C@H](/C=C(\C)C(=O)N1CCOCC1)C(C)C)C(C)(C)C)C(C)(C)c1cc(C)cc(C)c1"
A: Yes

Q: Try C/C(=C\[C@H](C(C)C)N(C)C(=O)[C@@H](NC(=O)C1N(C)CCSC1(C)C)C(C)(C)C)C(=O)O (stereo partly drawn) next.
A: No

Q: Also "CN[C@H](C(=O)N[C@H](C(=O)N(C)[C@H](/C=C/c1nnn[nH]1)C(C)C)C(C)(C)C)C(C)(C)c1ccccc1" , if possible.
A: No

Q: And then C/C(=C\[C@H](C(C)C)N(C)C(=O)[C@@H](NC(=O)C(C(C)(C)c1ccccc1)S(C)(=O)=O)C(C)(C)C)C(=O)O (stereo partly drawn) , what is it?
A: No

----------
Tested on: KB85
Assay: cells
Assay type: cell-based
Settings: 72 h, 3 days, SRB
Description: Cell Survival Assay: Standard Pharmacological Test Procedure. […] Compounds are incubated with cells for 3 days.
Where a SMILES comes first, the peptide text is derived from it. [ ]: non-standard residue; d: D form. NMePhe(β,β-Me2) = CN[C@H](C(=O)O)C(C)(C)c1ccccc1; Tle = CC(C)(C)[C@H](N)C(=O)O; NMeV = CN[C@H](C(=O)O)C(C)C
// returns -1 unless IC50 is strictly below 200 nM, in which case 1

Q: In the record for "CN[C@H](C(=O)N[C@H](C(=O)N(C)[C@H](/C=C(\C)C(=O)NO)C(C)C)C(C)(C)C)C(C)(C)c1ccccc1" , is IC50 less than 200 nM?
A: -1

Q: How about this compound: "CN[C@H](C(=O)N[C@H](C(=O)N(C)[C@H](/C=C(\C)C(=O)N1CCN(Cc2ccccc2)CC1)C(C)C)C(C)(C)C)C(C)(C)c1ccc(C)c(C)c1"
A: 1

Q: Now this one: CN[C@H](C(=O)N[C@H](C(=O)N(C)[C@H](C(=O)N1CCC[C@H]1C(=O)OC)C(C)C)C(C)(C)C)C(C)(C)c1ccccc1 [Example 33] (H-[NMePhe(β,β-Me2)][Tle][NMeV]P-OMe)
A: 1

Q: Cool, now CN[C@@H](C(=O)N[C@H](C(=O)N(C)[C@H](/C=C(\C)C(=O)O)C(C)C)C(C)(C)C)C1(C)CCCc2ccccc21 (single isomer, unassigned)
A: 1

Q: // repeat for "CN[C@H](C(=O)N[C@H](C(=O)N(C)[C@H](/C=C/P(=O)(OC)OC)C(C)C)C(C)(C)C)C(C)(C)c1ccccc1" and report
A: -1

Q: "CN[C@H](C(=O)N[C@H](C(=O)N(C)[C@H](/C=C(\C)C(=O)N1CC=C[C@H]1C(=O)O)C(C)C)C(C)(C)C)C(C)(C)c1ccccc1" , same question.
A: 1
